- Tested on: U251-MG cells
- Assay Summary: Half-maximal cell-inhibitory concentration on U251-MG cells (CCK-8)
- Assay type: cell-based
- Protocol Conditions: Homo sapiens, U-251, U251-MG cells (DHX33-overexpressing), 48 hours incubation, read-out: IC50, half-maximal inhibitory concentrations of compounds on U251-MG cell
Recorded IC50 for the following compounds

Compound: COc1cc2cc(NC(=O)c3cc(C)n(-c4sc(C)cc4C#N)c3C)[nH]c2cn1 [AB29573]
IC50: 100 to 1000 nM
//
Compound: COc1ccc2nc(C(=O)Nc3cc(C)n(-c4sc(C)cc4C#N)c3C)[nH]c2c1 [AB29540]
IC50: 100 to 1000 nM
//
Compound: COc1cnc2nc(NC(=O)c3cc(C)n(-c4sc(C)cc4C#N)c3C)[nH]c2c1 [AB29566]
IC50: < 100 nM
//
Compound: Cc1cc(C#N)c(-n2c(C)cc(C(=O)Nc3nc4ccc(F)cc4[nH]3)c2C)s1 [AB29556]
IC50: 100 to 1000 nM
//
Compound: COc1ccc2nc(NC(=O)c3cc(C)n(-c4sc(C)cc4C#N)c3C)n(C)c2c1 [AB29561]
IC50: 100 to 1000 nM
//
Compound: Cc1cc(C#N)c(-n2c(C)cc(C(=O)Nc3nc4cccnc4[nH]3)c2C)s1 [AB29554]
IC50: 1000 to 5000 nM
//
Compound: COc1cc2[nH]c(NC(=O)c3cc(C)n(-c4sc(C)cc4C#N)c3C)nc2cn1 [AB29558]
IC50: < 100 nM
//
Compound: Cc1cc(C#N)c(-n2c(C)cc(C(=O)Nc3nc4ccccc4[nH]3)c2C)s1 [AB29553]
IC50: 100 to 1000 nM
//
Compound: COCn1c(NC(=O)c2cc(C)n(-c3sc(C)cc3C#N)c2C)nc2ccc(OC)cc21 [AB29562]
IC50: 100 to 1000 nM
//
Compound: COc1ccc2nc(NC(=O)c3cc(C)n(Cc4cccs4)c3C)[nH]c2c1 [AB29552]
IC50: 1000 to 5000 nM
//
Compound: COc1cccc2nc(NC(=O)c3cc(C)n(-c4sc(C)cc4C#N)c3C)[nH]c12 [AB29559]
IC50: 1000 to 5000 nM
//
Compound: Cc1cc(C#N)c(-n2c(C)cc(C(=O)Nc3nc4ccc(Cl)cc4[nH]3)c2C)s1 [AB29557]
IC50: 100 to 1000 nM
//
Compound: COc1ccc2c(c1)nc(NC(=O)c1cc(C)n(-c3sc(C)cc3C#N)c1C)n2COC(=O)C(C)(C)C [AB29565]
IC50: 1000 to 5000 nM
//
Compound: COc1ccc2nc(NC(=O)c3cc(C)n(-c4oc(C)nc4C#N)c3C)[nH]c2c1 [AB29522]
IC50: 100 to 1000 nM
//
Compound: Cc1cc(C#N)c(-n2c(C)cc(C(=O)Nc3nc4ccc(OC(F)(F)F)cc4[nH]3)c2C)s1 [AB29572]
IC50: 1000 to 5000 nM
//
Compound: COc1ccc2nc(NC(=O)c3cc(C)n(-c4sc(C)cc4C#N)c3C)n(COC(=O)C(C)(C)C)c2c1 [AB29564]
IC50: 1000 to 5000 nM
//
Compound: Cc1cc(C#N)c(-n2c(C)cc(C(=O)Nc3nc4ccncc4[nH]3)c2C)s1 [AB29555]
IC50: 1000 to 5000 nM
//
Compound: COCn1c(NC(=O)c2cc(C)n(-c3sc(C)cc3C#N)c2C)nc2cc(OC)ccc21 [AB29563]
IC50: 100 to 1000 nM
//
Compound: COc1ccc2nc(N(C)C(=O)c3cc(C)n(-c4sc(C)cc4C#N)c3C)[nH]c2c1 [AB29560]
IC50: 100 to 1000 nM
